# Test system: CAKI-1 renal
# MEASUREMENT_DESCRIPTION: NCI tumour cell line growth inhibition, 48 h
READOUT_LABEL: TGI

1. Cc1c(NC(=S)Nc2ccc([N+](=O)[O-])cc2)c(=O)n(-c2ccccc2)n1C | > 100 µM
2. Cc1nc2c(c(N3CCN(C)CC3)n1)Cc1ccccc1-2 | 49.4 µM
3. COc1cc(-c2nn(-c3cccc(NC(=O)Nc4ccc(Cl)c(C(F)(F)F)c4)c3)cc2-c2ccncc2)ccc1Cl | 4.72 µM
4. CN(C)c1ccc(/C=c2\sc3nnc(-c4ccco4)n3c2=O)cc1 | > 100 µM
5. CCOC(=O)c1c(O)cn2c1[nH]c1cccc3cccc2c31 | > 100 µM
6. C=C(C)[C@@H]1CC[C@]2(CO)CC[C@]3(C)[C@H](CC[C@@H]4[C@@]5(C)CCCNC(C)(C)[C@@H]5CC[C@]43C)[C@@H]12 | 2.89 µM
7. CC1=CCC2CC1C(C(=O)c1c[nH]c3ccccc13)=NC2(C)C (stereo not drawn) | > 100 µM
8. C=C1C2CCC3C4(C)CCCC(C)(C(=O)O)C4CCC3(C2)C1OC(=O)/C(C)=C/C (stereo not drawn) | > 100 µM

----------
Known TGI of a selection of compounds
# Tested on: NCI/ADR-RES ovarian
# MEASUREMENT_DESCRIPTION: NCI tumour cell line growth inhibition, 48 h
READOUT_LABEL: TGI

1) CN(C)Cc1cc(Cl)c(O)c(CN(C)C)c1 | > 100 µM
2) O=C1c2c(c(=O)[nH]c3ccccc23)[C@H](c2ccccc2)[C@@H]2CCCN12 | 36.4 µM
3) COC1OC2COC1(OCc1ccccc1)C1OC(C)(C)OC21 (stereo not drawn) | > 100 µM
4) COc1ccc(C2SCC(=O)N2c2ccc(-n3c(-c4ccccc4)nc4ccccc4c3=O)cc2)cc1 (stereo not drawn) | > 100 µM
5) COc1ccc(C2CC(c3c(O)ccc4ccccc34)=NN2)cc1OC (stereo not drawn) | 9.77 µM
6) CCOC(=O)c1c(O)cn2c1[nH]c1cccc3cccc2c31 | > 100 µM
7) CC1(C)Oc2ccc3ccc(=O)oc3c2C(O)C1O (stereo not drawn) | > 100 µM
8) CN1CCC2(CC1)SSC1(CCN(C)CC1)S2 | > 100 µM
9) Cc1ccc(OCC2CO2)c(Br)c1 (stereo not drawn) | 33 µM
10) O=C(Cc1ccc2ccccc2c1)NCc1ccc(C(=O)NCCc2ccccc2)cc1 | > 100 µM
11) COc1ccc2c(c1)c1c3c(ccc4ncn2c43)N(CCO)CCN=1 | 1.76 µM
12) COc1c2c(c3c(c1OC)c(=O)c1ccccc1n3C)OCO2 | > 100 µM
13) Cc1nc(OCc2ccccc2)c2ncn(CCO)c2n1 | > 100 µM
14) Cc1c(Cn2c(C)nc3c(C(=O)O)cc(N4CCOCC4)cc32)cccc1C(F)(F)F | 40.6 µM
15) COC(=O)[C@H](Cc1ccccc1)NC(=O)c1ccc(CNC(=O)/C=C/c2ccc(OCc3ccccc3)cc2)cc1 | > 78 µM
16) CC1(C)N=C(N)N=C(N)N1c1ccc(CNC(=O)Nc2ccc(S(=O)(=O)F)c(Cl)c2)c(Cl)c1 | > 100 µM
17) CCOC(=O)c1[nH]c2cc(Cl)ccc2c1[C@@H](C(=O)NC(C)(C)C)N(CC)C(=O)CCCCC#Cc1cccc2c1CN(C1CCC(=O)NC1=O)C2=O (stereo partly drawn) | > 100 µM
18) Cc1ccc(CNc2ccc3nc(CCC4CCCCC4)[nH]c3c2)cc1 | 9.51 µM
19) OC1NC2Nc3ccccc3NC2NC1O (stereo not drawn) | > 100 µM
20) COC(=O)c1cc2c(c(C(=O)OC)c1)CCC2 | > 100 µM
21) Cc1ccc2c(c1)nc1n2C(c2c(F)cccc2F)SC1 (stereo not drawn) | > 100 µM
22) NC(=O)c1cc(N2CC2)c([N+](=O)[O-])cc1[N+](=O)[O-] | > 200 µM
23) Cn1c(-c2ccco2)ccc1-c1ccc(C=O)o1 | > 100 µM

----------
# System: U251 CNS
# MEASUREMENT_DESCRIPTION: NCI tumour cell line growth inhibition, 48 h
READOUT_LABEL: TGI (µM)

1. Cc1ccc(OCC2CO2)c(Br)c1 (stereo unspecified) | 32.6
2. CCN(CC)CCN(CC)CC.CCN(CC)CCN(CC)CC.[Cu+2].[Cu+2].[O-][Cl+3]([O-])([O-])[O-].[OH3+].[OH3+] | 32.1
3. O=S(=O)(N=C1C(Cl)=C(Cl)C(=NS(=O)(=O)c2ccccc2)C(Cl)=C1Cl)c1ccccc1 | 54
4. COc1cc(CCC[P+](c2ccccc2)(c2ccccc2)c2ccccc2)c(OC)c2c1OCO2 | 17.5
5. Cc1cc(OCc2nnc3n2S(=O)(=O)c2ccccc2N3C)ccc1Cl | 43.6
6. COc1cc(-n2ccnc2-c2ccc3ccccc3c2)cc(OC)c1OC | 21.5

----------
# Test system: SR leukemia
# MEASUREMENT_DESCRIPTION: NCI tumour cell line growth inhibition, 48 h
READOUT_LABEL: TGI (µM)

1. O=C1CCCCCCC2=C1C(Sc1ccccc1)CC2 (stereo unspecified) | 79.3
2. CCn1c(SCC(=O)N/N=C2\SCC(=O)N2c2ccc(C)cc2)nc2ccccc2c1=O | 47.2
3. C=C1C2CCC3C4(C)CCCC(C)(C(=O)O)C4CCC3(C2)C1OC(=O)/C(C)=C/C (stereo unspecified) | 9.55

----------
Known TGI of a selection of molecules
# System: MDA-N
# MEASUREMENT_DESCRIPTION: NCI tumour cell line growth inhibition, 48 h
Where a SMILES comes first, the peptide text is derived from it. [ ]: non-standard residue; d: D form. pGlu = O=C1CC[CH](C(=O)O)N1
READOUT_LABEL: TGI

1) O=C(O)/C=C/c1ccc(Oc2ccccc2C(=O)O)o1 | > 10 µM
2) COc1ccc(CCN2CCN(CCCc3ccccc3)CC2)cc1 | > 100 µM
3) CC(NC1=NCCO1)c1ccccc1Cl (stereo not given) | > 100 µM
4) Cc1cc(N(CCC#N)CCC#N)ccc1/C(N=Nc1ccc([N+](=O)[O-])cc1)=N\NC(=O)c1cc(Cl)ccc1O | > 100 µM
5) OC1CC2CCC(C1)N2CCCN1c2ccccc2Sc2ccc(Cl)cc21 (stereo not given) | 3.62 µM
6) O=C(Cc1ccc2ccccc2c1)NCc1ccc(C(=O)NCCc2ccccc2)cc1 | > 100 µM
7) COc1ccc(/C=C2\N=C(N3CCCC(CO)C3)NC2=O)cc1 (stereo not given) | > 100 µM
8) CC(NC(=O)C1CCC(=O)N1)C(=O)N1CCCC1C(N)=O (stereo not drawn) ([pGlu]-Ala-Pro-NH2; configuration not given here) | > 100 µM
9) O=C(O)c1cccc(S(=O)(=O)NCCO)c1 | > 100 µM
10) CCOC(=O)c1c(O)cn2c1[nH]c1cccc3cccc2c31 | > 100 µM

----------
# System: UACC-62 melanoma
# MEASUREMENT_DESCRIPTION: NCI tumour cell line growth inhibition, 48 h; in the data active = GI50 below about 0.43 µM; inactive = the rest
Possible outcomes: t (active), f (inactive)

1. O=C(O)Cc1cccc2c(=O)cc(-c3ccccc3)oc12 | f
2. COc1cc2nc(N3CCCN(C)CC3)nc(NC3CCN(Cc4ccccc4)CC3)c2cc1OC | f
3. CN(C)c1ccc(/C=N/NC(N)=S)nc1 | f
4. Cc1ccc2c(C(C[N+](=O)[O-])c3ccccc3)c(-c3ccccc3)[nH]c2c1 (stereo unspecified) | f
5. O=C1c2c(c(=O)[nH]c3ccccc23)[C@H](c2ccccc2)[C@@H]2CCCN12 | f
6. COc1cc(CCC[P+](c2ccccc2)(c2ccccc2)c2ccccc2)c(OC)c2c1OCO2 | f
7. CN1C(=O)CCC(N2C(=O)c3cccc(NCCOCCOCCNC(=O)c4cc5c(o4)C(=O)c4ccccc4C5=O)c3C2=O)C1=O (stereo unspecified) | f
8. CSc1ccc(C2=NN(C(C)=O)C(c3ccc(-c4cc(Cl)c(Cl)cc4Cl)o3)C2)cc1 (stereo unspecified) | f
9. CC(=O)O.CN1[CH-]N(Cc2ccc(C#N)cc2)c2ccccc21.[Ag+] | f
10. CC1(C)N=C(N)N=C(N)N1c1ccc(CNC(=O)Nc2ccc(S(=O)(=O)F)c(Cl)c2)c(Cl)c1 | t
11. CC1SC(c2ccccc2Cl)N(NC(=O)C(O)c2ccccc2)C1=O (stereo unspecified) | f
12. C=C(C)[C@@H]1CC[C@]2(CO)CC[C@]3(C)[C@H](CC[C@@H]4[C@@]5(C)CCCNC(C)(C)[C@@H]5CC[C@]43C)[C@@H]12 | f
13. CCN1CCN(CCNc2nccc(-c3c(-c4ccc(F)c(O)c4)nc4occn34)n2)S1(=O)=O | f
14. CCC1=C(c2ccc(OC)cc2)C(C)(C)Oc2c1ccc(O)c2CN1CCCC1 | f
15. CC1=C([Te]c2ccccc2)C(=O)c2ccccc2C1=O | f
16. CCOC(=O)C(=Cc1ccc(C#N)cc1)C(=O)OCC | f
17. COC(=O)/C=C1/SC(=Nc2cccc(Cl)c2)N(CCc2c[nH]c3ccc(O)cc23)C1=O | f
18. COc1ccc2cc(-c3cnc4nonc4n3)ccc2c1 | f
19. CCSC[C@@H]1C[C@](O)(c2ccc(Cl)cc2)[C@@H](c2ccc(Cl)cc2)O1 | f
20. COc1ccc2c(c1)CCC1C2CC[C@@]2(C)C1CC[C@@H]2NC(=O)Cc1ccc(O)c(O)c1 (stereo partly specified) | f
21. Cc1ccc(CNc2ccc3nc(CCC4CCCCC4)[nH]c3c2)cc1 | f
